Assay: Toxicity in last instar larval stage of Galleria mellonella assessed as survival at 16 ug/ml after 96 hrs
As shown below, each of these molecules has a reported survival at 96 h value.

{"smilesData": "Clc1ccc(-c2nnn(CCCSc3nc4ccccc4o3)n2)cc1", "survival at 96 h [%]": 100}
{"smilesData": "Clc1ccccc1-c1nnn(CCCSc2nc3ccccc3o2)n1", "survival at 96 h [%]": 100}
